System: CEM cells HIV-1 protection, formazan growth assay
Test: NCI AIDS Antiviral Assay
property: EC50

### Prompt // Input: O=C(O)c1cc(CCc2cc(O)ccc2O)ccc1O . Output its EC50 only.
### Response > 182 µM

### Prompt // Input: CC(C)CCC[C@@H](C)[C@H]1CC[C@H]2[C@@H]3CC[C@H]4C[C@@H](CCCC(c5ccc(O)c(C(=O)O)c5)c5ccc(O)c(C(=O)O)c5)CC[C@]4(C)[C@H]3CC[C@]12C . Output its EC50 only.
### Response 64.6 µM

### Prompt // Input: O=C1N=NC(=O)N1c1ccccc1 . Output its EC50 only.
### Response > 200 µM

### Prompt // Input: CC(=O)OCC1OC(n2ccc(=O)[nH]c2=O)C(OC(C)=O)C(OC(C)=O)C1OC(C)=O (centres undefined) . Output its EC50 only.
### Response > 562 µM

### Prompt // Input: NC(N)=NS(=O)(=O)c1ccc(Nc2c3ccccc3nc3c(C(=O)NC(CO)(CO)CO)cccc23)cc1 . Output its EC50 only.
### Response > 200 µM

### Prompt // Input: Cc1cc(N=Nc2ccccc2)ccc1NCS(=O)(=O)O . Output its EC50 only.
### Response > 200 µM

### Prompt // Input: COc1cccc(N2C(=O)[C@H]3[C@H]4CC(C(C)(C)C)CC[C@H]4c4c([nH]c5ccccc45)[C@H]3C2=O)c1 (some centres undefined) . Output its EC50 only.
### Response 18.2 µM

### Prompt // Input: CC(C)Nc1n[nH]c(=O)n1C(C)C . Output its EC50 only.
### Response > 200 µM

### Prompt // Input: CCCCOP(=O)(OCCCC)OP(=O)(OCCCC)OCCCC . Output its EC50 only.
### Response > 200 µM

src = PubChem BioAssay AID179
